Each recorded value in this set is attributed to patent US11236081B2.

Assignment: determine reported concentration in plasma, Mean for the given molecules.
# Assay info: Pharmacokinetic study: plasma concentration and plasma PK parameters after IV/PO dosing (LC-MS/MS, WinNonlin)
# Assay type: in vivo, Male SD Rat
# Experimental conditions: male SD rat, PO 10 mg/kg (equal to freebase), 1 h, mean n=3; vehicle 20% HP-β-CD in water (POA, freebase) or water (salts)
All answers are understood in ng/mL, so give the number only.

Q: Determine from records and report concentration in plasma, Mean for COc1cc2c(cc1OC)[C@@H]1Cc3ccc(O)c(OC)c3CN1CC2.O=C(O)C(=O)O [TLZ-16 oxalate]
Ans: 155

Q: Determine from records and report concentration in plasma, Mean for COc1cc2c(cc1OC)[C@@H]1Cc3ccc(O)c(OC)c3CN1CC2.O=C(O)/C=C\C(=O)O [TLZ-16 maleate]
Ans: 167

Q: Determine from records and report concentration in plasma, Mean for COc1cc2c(cc1OC)C1Cc3ccc(O)c(OC)c3CN1CC2.CS(=O)(=O)O (stereo not shown) [TLZ-16 mesylate]
Ans: 189

Q: Determine from records and report concentration in plasma, Mean for COc1cc2c(cc1OC)[C@@H]1Cc3ccc(O)c(OC)c3CN1CC2.Cl [TLZ-16 HCl]
Ans: 151

----------
# Assay info: Pharmacokinetic study: plasma concentration and plasma PK parameters after IV/PO dosing (LC-MS/MS, WinNonlin)
# Assay type: in vivo, Male SD Rat
# Experimental conditions: male, SD, rat, plasma, iv, 3 mg/kg, male SD rat, IV 3 mg/kg, plasma, individual rats; read-out: AUCInf
Readout name: AUC(0-inf) (ng·h/mL)
All answers are understood in ng·h/mL, so give the number only.

Q: Determine from records and report AUC(0-inf) for COc1cc2c(cc1OC)[C@@H]1Cc3ccc(O)c(OC)c3CN1CC2 [Compound (1), l-corydalmine]
Ans: 950

----------
# Assay info: Pharmacokinetic study: plasma concentration and plasma PK parameters after IV/PO dosing (LC-MS/MS, WinNonlin)
# Type: in vivo, Male SD Rat
# Experimental conditions: male SD rat, PO 10 mg/kg (equal to freebase), 0.5 h, mean n=3; vehicle 20% HP-β-CD in water (POA, freebase) or water (salts)
# Source text: Pharmacokinetic and Brain Penetration Study Dose formulation processing during dosing: The dose formulations will be kept at room temperature. Concentrations of Test Article in the plasma samples will be analyzed using a LC-MS/MS method. WinNonlin (Phoenix™, version 6.1) or other similar software will be used for pharmacokinetic calculations. The following pharmacokinetic parameters will be calculated, whenever possible from the plasma concentration versus time data: […]
Readout name: concentration in plasma, Mean (ng/mL)
All answers are understood in ng/mL, so give the number only.

Q: Determine from records and report concentration in plasma, Mean for COc1cc2c(cc1OC)C1Cc3ccc(O)c(OC)c3CN1CC2.CS(=O)(=O)O (stereo not shown) [TLZ-16 mesylate]
Ans: 254

Q: Determine from records and report concentration in plasma, Mean for COc1cc2c(cc1OC)[C@@H]1Cc3ccc(O)c(OC)c3CN1CC2.O=C(O)/C=C\C(=O)O [TLZ-16 maleate]
Ans: 236

Q: Determine from records and report concentration in plasma, Mean for COc1cc2c(cc1OC)[C@@H]1Cc3ccc(O)c(OC)c3CN1CC2.Cl [TLZ-16 HCl]
Ans: 266

Q: Determine from records and report concentration in plasma, Mean for COc1cc2c(cc1OC)[C@@H]1Cc3ccc(O)c(OC)c3CN1CC2.O=C(O)C(=O)O [TLZ-16 oxalate]
Ans: 242
